Biological target: Alpha-1A adrenergic receptor (Homo sapiens, UniProt P35348); further: assay procedure not described here
Sequence (P35348 whole entry): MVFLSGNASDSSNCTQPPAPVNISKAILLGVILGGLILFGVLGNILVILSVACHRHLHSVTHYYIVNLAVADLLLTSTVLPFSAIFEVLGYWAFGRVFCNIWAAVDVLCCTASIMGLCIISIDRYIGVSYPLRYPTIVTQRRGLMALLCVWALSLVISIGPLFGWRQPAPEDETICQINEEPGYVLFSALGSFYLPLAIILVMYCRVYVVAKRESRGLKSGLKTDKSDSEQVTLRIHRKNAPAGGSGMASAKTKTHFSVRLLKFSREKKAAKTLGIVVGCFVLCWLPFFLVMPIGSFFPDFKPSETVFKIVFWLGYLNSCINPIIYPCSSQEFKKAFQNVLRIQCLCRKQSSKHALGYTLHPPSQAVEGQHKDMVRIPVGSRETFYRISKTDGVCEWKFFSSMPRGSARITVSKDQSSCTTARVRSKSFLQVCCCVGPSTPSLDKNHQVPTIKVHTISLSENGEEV
Answer each item with its documented AC50.

The following compounds have reported results that may help.
[
  {
    "COMPOUND": "CC(=O)O[C@H]1CC[C@@]2(C)C(=CC[C@@H]3[C@@H]2CC[C@]2(C)C(c4cccnc4)=CC[C@@H]32)C1 [ABIRATERONE ACETATE]",
    "AC50": "> 10 µM"
  },
  {
    "COMPOUND": "O=C(O)CCCCCCCC(=O)O",
    "AC50": "> 30 µM"
  },
  {
    "COMPOUND": "COc1ccc(CCNCC(O)COc2cccc(C)c2)cc1OC (stereo not given)",
    "AC50": "1.2 µM"
  },
  {
    "COMPOUND": "Nc1ccn([C@H]2CC[C@@H](CO)O2)c(=O)n1",
    "AC50": "> 10 µM"
  }
]

Bench note, Alpha-1A adrenergic receptor (Homo sapiens, UniProt P35348): CCCC1O[C@@H]2C[C@H]3[C@@H]4CCC5=CC(=O)C=C[C@]5(C)[C@H]4[C@@H](O)C[C@]3(C)[C@]2(C(=O)CO)O1 (stereo not given in full) [BUDESONIDE] , AC50 reads > 10 µM

# credit: ChEMBL document CHEMBL5291721
